Values compiled from paper PMC10397247.

Reported values of interaction score for individual entries
Target: T1, 4H465-AA
T1 chain: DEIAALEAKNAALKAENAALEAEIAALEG
Test: two-hybrid library CCmax;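 note: natural log of median RNA to DNA barcode read ratio; higher means stronger binding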
Details: mean of both orientations
Just the number, please, no unit attached.

Worked set:
1. DKNAALKAENAALKAEIAALEAKIAALKG [4H3782-AA]	-1.7
2. DENAALEAEIAALKAKIAALKAKNAALKG [4H1136-AA]	-1.44
3. DKNAALEAKIAALEAKIAALEAKIAALEG [4H3365-AA]	-1.05
4. DENAALEAEIAALKAENAALEAKIAALKG [4H1110-AA]	-1.11
5. DEIAALEAENAALEAEIAALKAENAALKG [4H140-AA]	-1.51
6. DKNAALKAEIAALKAKNAALKAEIAALEG [4H3705-AA]	-1.21

INPUT: Which interaction score reading was recorded for the binder DKNAALKAEIAALKAEIAALEAENAALEG [4H3651-AA] ?
OUTPUT: -1.28

INPUT: Which interaction score reading was recorded for the binder DEIAALEAKIAALKAKIAALEAENAALEG [4H355-AA] ?
OUTPUT: -1.96
